- Tested on: Kochia (Kochia scoparia)
- ASSAY_PROTOCOL: Test A postemergence
- Format: in vivo
- MEASUREMENT_SETUP: Bassia scoparia, post-emergence, 240 h, 125 g ai/ha, postemergence; visual injury on 0 to 100 scale (0 no effect, 100 complete control), approx. 10 d; read-out: Kochia plant response rating
Binarize pest or weed control at 125 g/ha at 30%; below is Satisfied, at or above is Not satisfied.

COMPOUND	TEST_TARGET	CATEGORY_LABEL
CC(C)COc1cccc([C@H]2CN(C)C(=O)[C@@H]2C(=O)Nc2ccc(F)cc2F)c1	Kochia (Kochia scoparia)	Satisfied
CCc1cccc([C@H]2CCNC(=O)[C@@H]2C(=O)Nc2cccc(F)c2F)c1	Kochia (Kochia scoparia)	Satisfied
CSc1ccccc1NC(=O)[C@H]1C(=O)N(C)C[C@@H]1c1ccc(F)c(OC(C)C)c1	Kochia (Kochia scoparia)	Satisfied
CN1C[C@H](c2ccc(C(F)(F)F)cn2)[C@@H](C(=O)Nc2cccc(F)c2F)C1=O	Kochia (Kochia scoparia)	Not satisfied
Cc1ccc([C@H]2CNC(=O)[C@@H]2C(=O)Nc2cccc(F)c2C)cc1C	Kochia (Kochia scoparia)	Satisfied

Find out if reported pest or weed control at 125 g/ha for CN1C[C@H](c2cc(C(F)F)cs2)[C@@H](C(=O)Nc2ccc(F)c(F)c2F)C1=O is less than 30% Not satisfied

Quick check: pest or weed control at 125 g/ha of CC(C)Oc1ccc([C@H]2CNC(=O)[C@@H]2C(=O)Nc2ccccc2F)cc1 under 30%? Satisfied

Lab note: pest or weed control at 125 g/ha threshold 30%. Does this compound come in strictly under it? Cc1c(F)cccc1NC(=O)[C@H]1C(=O)N(C)C[C@@H]1c1cc(C(F)F)cs1 Satisfied

Given the entry CN1C[C@H](c2csc(C(F)F)c2)[C@@H](C(=O)Nc2ccccc2F)C1=O , would its reported pest or weed control at 125 g/ha be below 30%? Not satisfied

Hello, is pest or weed control at 125 g/ha of the following compound strictly smaller than 30%? Cc1ccc([C@H]2CNC(=O)[C@@H]2C(=O)Nc2ccccc2F)cc1C Satisfied

is_below(pest or weed control at 125 g/ha, 30%) for O=C1NC[C@H](c2ccc(F)c(OC(F)(F)C(F)F)c2)[C@H]1C(=O)Nc1ccc(F)cc1F (racemic) ? Not satisfied

For this compound, is pest or weed control at 125 g/ha lower than 30%? CN1C[C@H](c2cc(C(F)F)cs2)[C@@H](C(=O)Nc2cccc(F)c2C#N)C1=O Satisfied

* * *

Reported Plant response rating, Kochia values for a set of compounds
- Tested on: Kochia (Kochia scoparia)
- ASSAY_PROTOCOL: Test A preemergence
- Format: in vivo
- MEASUREMENT_SETUP: 500 g ai/ha, preemergence; 0 to 100 scale, 0 = no effect, 100 = complete control
Respond with the number and no other words.

COMPOUND	Plant response rating, Kochia
CN1CC(c2cccc(OC(F)F)c2)C(C(=O)Nc2ccccc2F)C1=O (stereo not drawn) [Compound 618]	90
Cc1ccc(C2CN(C)C(=O)C2C(=O)Nc2cccc(F)c2F)cc1 (stereo not drawn) [Compound 662]	90

Measured Plant response rating, Kochia, CC(C)Oc1cccc(C2CN(C)C(=O)C2C(=O)Nc2ccccc2C(F)(F)F)c1 (stereo not drawn) [Compound 652] : 30

Record CC(=O)c1ccccc1NC(=O)C1C(=O)NCC1c1cccc(C(F)(F)F)c1 (racemic) [Compound 706] . Reported Plant response rating, Kochia: 0

Record CN1CC(c2cccc(C(F)(F)F)c2)C(C(=O)Nc2ccccc2S(C)(=O)=O)C1=O (stereo not drawn) [Compound 637] . Reported Plant response rating, Kochia: 60

What the record says about O=C1NCC(c2cc(F)c(F)cc2F)C1C(=O)Nc1ccc(F)c(F)c1F (stereo not drawn) [Compound 614] : Plant response rating, Kochia is 20

* * *

- Tested on: giant foxtail (Setaria faberi)
- ASSAY_PROTOCOL: Test G Pre-Emergence Protocol
- Format: in vivo
- MEASUREMENT_SETUP: Setaria faberi, pre-emergence, 312 h, 62.5 g ai/ha, evaluated after 13 days, 100=total damage to plant, 0=no damage to plant, read-out: Foxtail, Giant damage rating
Here the recorded pest or weed control at 62.5 g/ha is given for each entry.
# output: bare number, implied unit %

MOLECULE	pest or weed control at 62.5 g/ha / %
CON1C[C@@H](c2cccc(C(F)(F)F)c2)[C@H](C(=O)Nc2cccc(F)c2F)C1=O (racemic)	90
Cc1c(F)cccc1NC(=O)[C@@H]1C(=O)N(C)C[C@H]1c1cccc(OCC(F)(F)F)c1 (racemic)	70

Briefly, pest or weed control at 62.5 g/ha measured for CN1C[C@H](c2ccc(F)c(F)c2)[C@@H](C(=O)Nc2cnccc2C(F)(F)F)C1=O (racemic) : 60

Please fill in: pest or weed control at 62.5 g/ha reported for Cc1c(F)ccc(NC(=O)[C@@H]2C(=O)N(C)C[C@H]2c2ccc(C(F)(F)F)cc2)c1Cl (racemic) = 20

* * *

- Tested on: ryegrass, Italian (Italian ryegrass, Lolium multiflorum)
- ASSAY_PROTOCOL: Test A postemergence
- Type: in vivo
- MEASUREMENT_SETUP: Lolium multiflorum, post-emergence, 240 h, 125 g ai/ha, Postemergence; visual injury after approximately 10 d; 0 to 100 scale where 0 is no effect and 100 is complete control; read-out: Plant response rating, Ryegrass, Italian
ENDPOINT_NAME: pest or weed control at 125 g/ha
In your response, put the unit directly after the numeric value.

Cc1ccc(NC(=O)[C@H]2C(=O)N(C)C[C@@H]2c2cc(F)cc(F)c2)cc1 0%
CSc1ccccc1NC(=O)[C@H]1C(=O)N(C)C[C@@H]1c1cc(C)c(Br)c(C)c1 0%
O=C1NC[C@H](c2cc(C(F)(F)F)cs2)[C@H]1C(=O)Nc1cccc(F)c1F 20%
Cc1cc([C@H]2CN(C)C(=O)[C@@H]2C(=O)Nc2ccccc2F)ccc1Cl 50%
O=C(Nc1cccc(F)c1F)[C@H]1C(=O)N(OCc2ccccc2)CC[C@@H]1c1cccc(Cl)c1 0%

Sample CSc1ccccc1NC(=O)[C@H]1C(=O)N(C)C[C@@H]1c1cc(F)cc(Cl)c1 , system: ryegrass, Italian (Italian ryegrass, Lolium multiflorum). Its pest or weed control at 125 g/ha is 20%

Considering Cc1c(F)cccc1NC(=O)[C@H]1C(=O)N(C)C[C@@H]1c1cc(F)cc(Cl)c1 , its pest or weed control at 125 g/ha with ryegrass, Italian (Italian ryegrass, Lolium multiflorum) was recorded as 50%

Log: ryegrass, Italian (Italian ryegrass, Lolium multiflorum), compound CN1C[C@H](c2ccc(C(F)(F)F)cc2)[C@@H](C(=O)Nc2ccc(F)cc2C(F)(F)F)C1=O , pest or weed control at 125 g/ha = 0%

Item CON1CC[C@H](c2ccc(F)cc2)[C@@H](C(=O)Nc2cccc(F)c2F)C1=O ; assay system ryegrass, Italian (Italian ryegrass, Lolium multiflorum); pest or weed control at 125 g/ha reported as 0%

Record for Cc1cc([C@H]2CN(C)C(=O)[C@@H]2C(=O)Nc2ccc(F)cc2F)ccc1Cl under target or system ryegrass, Italian (Italian ryegrass, Lolium multiflorum): pest or weed control at 125 g/ha reported as 30%

* * *

- System: crabgrass, large (large crabgrass, Digitaria sanguinalis)
- ASSAY_PROTOCOL: Test C preemergence
- Assay type: in vivo
- MEASUREMENT_SETUP: 250 g ai/ha, scale 0 to 100, 0 no effect, 100 complete control
Each item that follows carries a reported Plant response rating, Crabgrass, Large.
Keep the answer to the number alone.

COMPOUND	ENDPOINT_NAME	VAL
Cc1ccc(C2CN(C)C(=O)C2C(=O)Nc2cccc(F)c2F)cc1 (stereo not shown) [Compound 662]	Plant response rating, Crabgrass, Large	100
CN1CC(c2cccc(C(F)(F)F)c2)C(C(=O)Nc2cccc(F)c2F)C1=O (stereo not shown) [Compound 636]	Plant response rating, Crabgrass, Large	100
CN1CC(c2cccc(C(F)(F)F)c2)C(C)(C(=O)Nc2ccccc2F)C1=O (stereo not shown) [Compound 428]	Plant response rating, Crabgrass, Large	98

// sample O=C1NCC(c2cc(F)cc(Cl)c2)C1C(=O)Nc1cccc(F)c1F (stereo not shown) [Compound 492] , its Plant response rating, Crabgrass, Large was 95

* * *

- Tested on: giant foxtail (Setaria faberii)
- ASSAY_PROTOCOL: Test A postemergence
- Type: in vivo
- MEASUREMENT_SETUP: Setaria faberi, post-emergence, 240 h, 125 g ai/ha, postemergence; visual injury after approximately 10 d; 0 to 100 scale (0 no effect, 100 complete control); read-out: Plant response rating, Foxtail, Giant
Quick reference for pest or weed control at 125 g/ha among some compounds
A number alone suffices; assume %.

COMPOUND	TEST_TARGET	pest or weed control at 125 g/ha (%)
CN1C[C@H](c2ccc(C(F)(F)F)cc2)[C@@H](C(=O)Nc2ccccc2C(F)(F)F)C1=O	giant foxtail (Setaria faberii)	90
CN1C[C@H](c2cc(F)cc(F)c2)[C@@H](C(=O)Nc2ncccc2F)C1=O	giant foxtail (Setaria faberii)	0
CN1C[C@H](c2cccc([N+](=O)[O-])c2)[C@@H](C(=O)Nc2cccc(F)c2F)C1=O (racemic)	giant foxtail (Setaria faberii)	80
Cc1cc([C@H]2CNC(=O)[C@@H]2C(=O)Nc2ccc(F)cc2F)ccc1Br	giant foxtail (Setaria faberii)	0
CSc1ccccc1NC(=O)[C@H]1C(=S)NC[C@@H]1c1ccc(C)c(C)c1	giant foxtail (Setaria faberii)	0
CC(F)(F)c1cccc([C@H]2CNC(=O)[C@@H]2C(=O)Nc2cccc(F)c2F)c1	giant foxtail (Setaria faberii)	80
CC(F)(F)c1cccc([C@H]2CNC(=O)[C@@H]2C(=O)Nc2ccccc2S(C)(=O)=O)c1	giant foxtail (Setaria faberii)	60
Cc1ccc([C@H]2CNC(=O)[C@@H]2C(=O)Nc2cccc(F)c2F)s1	giant foxtail (Setaria faberii)	0

Bench note, giant foxtail (Setaria faberii): Cc1cc([C@H]2CNC(=O)[C@@H]2C(=O)Nc2ccc(F)cc2F)ccc1F , pest or weed control at 125 g/ha reads 30

The observed pest or weed control at 125 g/ha for CSc1ccccc1NC(=O)[C@H]1C(=O)N(C)C[C@@H]1c1cc(F)cc(F)c1 when tested with giant foxtail (Setaria faberii) stands at 70

Recorded pest or weed control at 125 g/ha for C=CCN1C[C@H](c2ccc(OC)c(F)c2)[C@@H](C(=O)Nc2cccc(F)c2F)C1=O on giant foxtail (Setaria faberii) was 0

Recorded pest or weed control at 125 g/ha for COc1cc([C@H]2CN(C)C(=O)[C@@H]2C(=O)Nc2ccccc2F)ccc1C(F)(F)F on giant foxtail (Setaria faberii) was 80
